# systemTested: human nerve growth factor (human, UniProt P01138 122-241)
# Sequence (P01138 122-241 limits assumed): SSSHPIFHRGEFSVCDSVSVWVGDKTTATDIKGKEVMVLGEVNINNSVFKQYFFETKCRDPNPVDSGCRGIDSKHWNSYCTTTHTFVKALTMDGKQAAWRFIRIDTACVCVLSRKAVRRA
# assayProtocol: cell-based or functional assay
Each entry below lists one item and its recorded IC50, human NGF-dependent survival of mouse E13.5 trigeminal neurons (15 pM NGF) value.
measuredMetric: IC50, human NGF-dependent survival of mouse E13.5 trigeminal neurons (15 pM NGF) (pM)

[
  {
    "binder": "H19-L129 (combined clone, H1 H2 L1 L2 matured) (Fab, V domains shown, See note of m8; also called H19-L129 Fab; Fab H19-L129) VH: QVQLQESGPGLVKPSETLSLTCTVSGFSLIGYDLNWIRQPPGKGLEWIGIIWGDGTTDYNSAVKSRVTISKDTSKNQFSLKLSSVTAADTAVYYCARGGYYYGTSYYFDYWGQGTLVTVS VL: DIQMTQSPSSLSASVGDRVTITCRASQSISNNLNWYQQKPGKAPKLLIYYTSRFHSGVPSRFSGSGSGTDFTFTISSLQPEDIATYYCQQSKTLPYTFGQGTKLEIKR",
    "modifierSign": "=",
    "numericResult": 60.1
  },
  {
    "binder": "clone 3C (Fab) (Fab, V domains shown, same L1, L2, H1, H2 mutations as 3E; See note of m8; also called Fab 3C) VH: QVQLQESGPGLVKPSETLSLTCTVSGFSLIGYDLNWIRQPPGKGLEWIGIIWGDGTTDYNSAVKSRVTISKDTSKNQFSLKLSSVTAADTAVYYCARGGYWYATSYYFDYWGQGTLVTVS VL: DIQMTQSPSSLSASVGDRVTITCRASQSISNNLNWYQQKPGKAPKLLIYYTSRFHSGVPSRFSGSGSGTDFTFTISSLQPEDIATYYCQQERTLPYTFGQGTKLEIKR",
    "modifierSign": "=",
    "numericResult": 80.9
  },
  {
    "binder": "antibody E3 (Fab) (Fab, V domains shown, Fab with human IgG2 CH1 and human kappa constant domain; His tag at the heavy chain C terminus in the E. coli format; also called Fab E3; 3E Fab) VH: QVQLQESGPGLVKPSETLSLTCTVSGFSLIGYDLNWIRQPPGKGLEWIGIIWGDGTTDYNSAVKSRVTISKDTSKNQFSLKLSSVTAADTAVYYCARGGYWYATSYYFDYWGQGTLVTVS VL: DIQMTQSPSSLSASVGDRVTITCRASQSISNNLNWYQQKPGKAPKLLIYYTSRFHSGVPSRFSGSGSGTDFTFTISSLQPEDIATYYCQQEHTLPYTFGQGTKLEIKR",
    "modifierSign": "<",
    "numericResult": 21
  },
  {
    "binder": "8L2-6D5 (CDR-grafted antibody with framework mutation V71K) (Fab, V domains shown, Fab (human IgG2 CH1 + C-kappa, His tag at heavy chain C terminus); also called 8L2-6D5 Fab; 8L2-6D5 (control)) VH: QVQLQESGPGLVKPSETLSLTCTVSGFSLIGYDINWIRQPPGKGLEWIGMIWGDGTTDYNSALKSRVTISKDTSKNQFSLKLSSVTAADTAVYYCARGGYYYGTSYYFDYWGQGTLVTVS VL: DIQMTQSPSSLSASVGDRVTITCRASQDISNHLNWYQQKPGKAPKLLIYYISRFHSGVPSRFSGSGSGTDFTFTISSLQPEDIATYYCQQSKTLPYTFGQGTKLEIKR",
    "modifierSign": "=",
    "numericResult": 1580
  }
]
